Target: DNA-(apurinic or apyrimidinic site) endonuclease (Homo sapiens, UniProt P27695)
Sequence (P27695 whole entry): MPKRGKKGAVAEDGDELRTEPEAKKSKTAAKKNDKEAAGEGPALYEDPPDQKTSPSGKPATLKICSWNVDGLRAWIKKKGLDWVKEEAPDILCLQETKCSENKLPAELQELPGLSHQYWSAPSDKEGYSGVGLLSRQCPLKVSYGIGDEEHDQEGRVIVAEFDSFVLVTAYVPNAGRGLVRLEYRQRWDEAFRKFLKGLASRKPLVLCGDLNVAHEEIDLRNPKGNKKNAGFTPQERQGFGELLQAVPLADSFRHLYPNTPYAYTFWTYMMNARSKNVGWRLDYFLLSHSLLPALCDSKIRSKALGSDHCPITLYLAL
Assay: APE1 Inhibition Assay
Details: pH 7.5; 30 °C
READOUT: pIC50
Recall that pIC50 is obtained by taking minus log10 of the concentration measured in molar.

input: For the compound `O=C(O)c1ccc(Sc2ccc(S(=O)(=O)c3ccc(C(=O)O)c(C(=O)O)c3)cc2)cc1` , give its measured pIC50 value.
output: 5.40
